These measurements were taken from the supplement of paper PMC9732359.

# test.method.notes: protein stability index of a GFP-peptide fusion (yeast GPS) (PSI 1-4); higher = more stable; sorted into four equal gates, so the index is relative within each strain
# condition.details: pdr5∆
property: protein stability index
Would you mind answering with just the numeric figure?

> print(dat)
                   monomer.sequence                 property  reading
1  TSGTNIAGTFNVGKPDQ [YOR098C/NUP1]  protein stability index     3.01
2          TKNDAGSKQILKTEAAN [BRR2]  protein stability index     2.95
3          EEAPAPTPAASAPAPAA [FAS2]  protein stability index     2.95

Pending sequence:
get_value(item= ISLLKNRRKQSFVLNKN [RPN4] , readout=protein stability index) returns 3.06
